- procedureSummary: aqueous solubility
- Type: physicochemical
- details: water, dihydrochloride salts
Where a name gives a salt, the structure may show the parent alone.
recordedEndpoint: solubility

Examples from the recorded data:
compound | recordedEndpoint | result
CCC(CC)CN1CCC(n2nnnc2CCCCOc2ccc3nc4[nH]c(=O)[nH]c4cc3c2)CC1 [Cmpd 13e] | solubility | > 5000 µg/mL
Oc1nc2cc3cc(OCCCc4nnnn4C4CCNCC4)ccc3[nH]c-2n1 [Cmpd 12a, dihydrochloride] | solubility | > 20000 µg/mL

Now look at this one.
Query block: Requested field: solubility. Item: Cl.Cl.O=c1[nH]c2cc3cc(OCCCc4nnnn4C4CCN(CC5CCCC5)CC4)ccc3nc2[nH]1 [Cmpd 12h]
Result block: 2000 to 3000 µg/mL

Taken from patent US5348960A.
